Measured values drawn from ChEMBL document CHEMBL4513216 for this set.

tested on: Plasmodium berghei; test: Screen against P. berghei liver stage (PbLuc), transformed with Luciferase, at 2uM; type: functional, HepG2; details: tested at 2 uM
The whole screen tested about 68,000 compounds, of which about 2,700 (4%) showed an effect of 50% or more. The sample holds strong results, similar compounds and a random draw of the others, so the mix is not that of the screen.
Assign 1 to entries whose INHIBITION meets or exceeds 20%; assign -1 to the rest.

Compound	Assigned Category
CC(C)NC(=O)N1CCCC(Cn2cc(-c3ccc(F)cc3)nn2)C1 (stereo not drawn)	-1
CS(=O)(=O)NC1CCN(Cc2ccc(OCc3ccccn3)cc2)CC1	-1
Cc1cc(N(C)C)nc(NC2CCc3nc(C)nn3C2)n1 (stereo not drawn)	-1
COCc1ccccc1NC(=O)[C@@H]1CCCN1C(=O)c1ccco1	-1
CC(=O)N1CCCC(c2ccc3sc(N)nc3n2)C1 (stereo not drawn)	-1
O=C(c1ccc(Cl)o1)N1CCCC(c2cc(C(F)(F)F)[nH]n2)C1 (stereo not drawn)	-1
COCC1CN(c2ccc(C#N)c(Cl)c2)CCO1 (stereo not drawn)	-1
Cc1nnc(N2CCCC3(CN(Cc4cnn(C)c4)CCO3)C2)o1 (stereo not drawn)	-1
CCc1nc(CN2CCCN(C(=O)C3CCOC3)CC2)cs1 (stereo not drawn)	1
COC(=O)c1sccc1NC(=O)C1CCCN1C(=O)c1ccco1 (stereo not drawn)	-1

Threshold query (INHIBITION >= 20%) on O=C(CCCn1cncn1)N1CCC2(CCCN(CC3CC3)C2=O)C1 (stereo not drawn)
1

Can you handle Cc1cccc(NC(=O)C2CCCN2C(=O)c2ccco2)c1C (stereo not drawn) next?
1

Can you handle Cc1cc2c(N3CCC(N(C)Cc4cnn(C)c4)CC3)ncnc2s1 next?
-1

Can you handle CCn1c(CN2CCN(CC(N)=O)CC2)nc2c(F)cccc21 next?
1

Can you handle Cc1cc(C)c(CNC(=O)NCc2cc(F)cc(F)c2)c(=O)[nH]1 next?
1

Can you handle CCc1nc(CN2CCCN(C(=O)c3cc(C)on3)CC2)cs1 next?
-1

Can you handle O=C(c1cccnc1)N(CCO)Cc1cc(Br)ccc1F next?
-1

Can you handle Cn1cc(N2CCN(c3ccc(C#N)cc3F)CC2=O)cn1 next?
1

Can you handle CCOCCN1CCc2cncnc2C1 next?
1

Can you handle Nc1nc2nc(C3CCCN(C(=O)c4cnccn4)C3)ccc2s1 (stereo not drawn) next?
1

Can you handle CC(Cn1cccn1)NC(=O)Nc1nccs1 (stereo not drawn) next?
1

Can you handle CCN1CCN(C(=O)c2[nH]c3ccccc3c2Cl)[C@H]2CS(=O)(=O)C[C@H]21 next?
1

Can you handle CNc1ccc(Cl)cc1C(=O)N1CCC(Cn2cc(CN)nn2)CC1 next?
-1

Can you handle CCN(CC)S(=O)(=O)N(C)Cc1ccc2c(c1)OCCO2 next?
-1

###

tested on: Plasmodium berghei; assay: Screen against P. berghei liver stage (PbLuc), transformed with Luciferase, at 2uM; assay type: functional, HepG2; details: tested at 2 uM
In all, about 68,000 compounds went through this assay and about 2,700 (4%) showed an effect of 50% or more. The sample holds strong results, similar compounds and a random draw of the others, so the mix is not that of the screen.
Measured Parameter: INHIBITION (%)
Answers are plain numbers, in %.

Look up INHIBITION for the entries below, preserving their order.
1. Cc1sc(-c2ccco2)nc1C(=O)N(CC(N)=O)C1CCCC1
2. CNC(=O)[C@@H]1[C@@H](c2ccccc2)CN2CCN(Cc3ccco3)C[C@H]12

1: 61.82; 2: -0.14
